# System: A498 renal
# ASSAY SUMMARY: NCI tumour cell line growth inhibition, 48 h
Assignment: determine reported TGI for the given molecules.

input: Fill blank: measured TGI of the molecule `COc1ccc(C[C@@H]2Cc3cc(OC)c(OC)cc3CN2C)cc1` is ____.
output: > 100 µM

input: Fill blank: measured TGI of the molecule COc1ccc(NC(=O)CC(=O)N2N=C(N3CCCCC3)CC2c2ccccc2)cc1 (stereo unspecified) is ____.
output: > 100 µM

input: Fill blank: measured TGI of the molecule `C[C@@H]1CN(C(=O)c2ccc(NC(=O)c3cc(O[C@H](C)c4c(Cl)ccc(F)c4Cl)c(N)nn3)cc2)C[C@H](C)N1` is ____.
output: 5.33 µM

input: Fill blank: measured TGI of the molecule `CC(C)(C)NCc1cc(Nc2ccnc3cc(Cl)ccc23)cc(-c2ccc(Cl)cc2)c1O` is ____.
output: 11.5 µM

input: Fill blank: measured TGI of the molecule `COc1ccc2c(c1)c(=O)c1ccccc1n2/C=C/C(=O)O` is ____.
output: > 100 µM

input: Fill blank: measured TGI of the molecule `CC(C)/C(Cl)=N\OC(=O)Nc1cccc(F)c1` is ____.
output: 17.9 µM

input: Fill blank: measured TGI of the molecule COc1ccccc1C1SCC(=O)N1c1ccc(-n2c(-c3ccccc3)nc3ccccc3c2=O)cc1 (stereo unspecified) is ____.
output: > 100 µM

input: Fill blank: measured TGI of the molecule `O=C(O)CCCCCCC[C@@H]1S[C@H]1CCCCCCO` is ____.
output: > 100 µM

input: Fill blank: measured TGI of the molecule `CC1=CC(=NC(=O)CBr)C=C/C1=N\S(=O)(=O)c1ccccc1` is ____.
output: 28.2 µM

input: Fill blank: measured TGI of the molecule `O=c1[nH]c(Nc2ccc(F)c(Cl)c2)nc2nc[nH]c12` is ____.
output: > 100 µM

input: Fill blank: measured TGI of the molecule `COc1cc2c3c(n(CCCCOC(=O)C(F)(F)F)c(=O)c2cc1OC)-c1cc2c(cc1C3=O)OCO2` is ____.
output: > 100 µM

###

# Test system: HCT-15 colon
# ASSAY SUMMARY: NCI tumour cell line growth inhibition, 48 h
QUANTITY: TGI

input: Fill blank: measured TGI of the compound `COCc1nc2c(OC)cc(-c3nc4nc(N5CCN(C)CC5)ccc4[nH]3)c(OC)c2[nH]1` is ____.
output: > 100 µM

input: Fill blank: measured TGI of the compound `Oc1ccc2cc(Br)ccc2c1-c1c(O)ccc2cc(Br)ccc12` is ____.
output: 12.1 µM

input: Fill blank: measured TGI of the compound `Cn1nccc1Nc1nccc(-c2cc3c(s2)C(C)(C)N(CCN2CCOCC2)C3=O)n1` is ____.
output: > 100 µM

input: Fill blank: measured TGI of the compound `CCOc1cccc(/C=N/NC(=O)c2ccc(Nc3ccnc(C(F)(F)F)c3)cc2)c1O` is ____.
output: > 100 µM

###

# Test system: MOLT-4 leukemia
# ASSAY SUMMARY: NCI tumour cell line growth inhibition, 48 h
QUANTITY: TGI

input: Item `N#Cc1c2ccc([N+](=O)[O-])cc2c(=O)n2c1sc1ccc(C(F)(F)F)cc12` with MOLT-4 leukemia - TGI?
output: > 100 µM

input: Item `CC1=NN(c2ccccc2)C(=O)C1=C1SCCS1` with MOLT-4 leukemia - TGI?
output: > 100 µM

input: Item `CN(C)c1ccc(-c2cc(=O)c3cc4c(cc3[nH]2)OCO4)cc1` with MOLT-4 leukemia - TGI?
output: > 100 µM

input: Item COc1ccccc1C1SCC(=O)N1c1ccc(-n2c(-c3ccccc3)nc3ccccc3c2=O)cc1 (stereo not given) with MOLT-4 leukemia - TGI?
output: > 100 µM

input: Item CCOC12OC3=C(CC1CC1=C(CCC1=O)O2)C(=O)CC3 (stereo not given) with MOLT-4 leukemia - TGI?
output: > 100 µM

###

# System: MALME-3M melanoma
# ASSAY SUMMARY: NCI tumour cell line growth inhibition, 48 h
Assignment: determine reported TGI for the given compounds.

input: Fill blank: measured TGI of the compound `O=c1cc(-c2ccccc2)[nH]c2cc(F)c(F)cc12` is ____.
output: > 100 µM

input: Fill blank: measured TGI of the compound `CC(C)(C)OC(=O)N(O)[C@@H]1C=C[C@H](n2cnc3c(N)ncnc32)C1` is ____.
output: > 100 µM

input: Fill blank: measured TGI of the compound CC(C)=CCC[C@H](C)[C@@H]1CC[C@]2(C)C3CC[C@]4(OC4(C)C)C(CCCO)[C@]3(C)CC[C@@]12C (some centres not stated) is ____.
output: 54.6 µM

input: Fill blank: measured TGI of the compound `CCOC(=O)c1ccc(Nc2nc3cc(C(F)(F)F)ccc3nc2-c2ccccc2)cc1` is ____.
output: > 100 µM

input: Fill blank: measured TGI of the compound CC(C)(C)NC(C1=CC(C)(C)c2ccccc2C1=O)c1ccccc1 (configuration not stated) is ____.
output: 2.97 µM

input: Fill blank: measured TGI of the compound `CNC(=O)CN(CC(=O)NC)C(=O)NC` is ____.
output: > 100 µM

input: Fill blank: measured TGI of the compound `CC1=NN(c2ccccc2)C(=O)C1=C1SCCS1` is ____.
output: > 100 µM

###

# Tested on: OVCAR-3 ovarian
# ASSAY SUMMARY: NCI tumour cell line growth inhibition, 48 h
QUANTITY: TGI

input: Fill blank: measured TGI of the compound CC(=O)O[C@H]1C(=O)[C@@]2(C)[C@H]([C@H](OC(=O)c3ccccc3)[C@]3(O)C[C@H](OC(=O)[C@H](OC(=O)OCCC(O)CO)[C@@H](NC(=O)c4ccccc4)c4ccccc4)C(C)=C1C3(C)C)[C@]1(OC(C)=O)CO[C@@H]1C[C@@H]2O (stereo not given in full) is ____.
output: 14.5 µM

input: Fill blank: measured TGI of the compound `COc1cc(/C=C2\C[C@H]3[C@@H]4CC=C5C[C@@H](O)CC[C@]5(C)[C@H]4CC[C@]3(C)[C@H]2O)cc(OC)c1OC` is ____.
output: 88 µM

input: Fill blank: measured TGI of the compound `COCc1nc2c(OC)cc(-c3nc4nc(N5CCN(C)CC5)ccc4[nH]3)c(OC)c2[nH]1` is ____.
output: 83 µM

input: Fill blank: measured TGI of the compound `COc1cc2c3c(n(CCCCOC(=O)C(F)(F)F)c(=O)c2cc1OC)-c1cc2c(cc1C3=O)OCO2` is ____.
output: > 100 µM

input: Fill blank: measured TGI of the compound `C[C@@H]1CN(C(=O)c2ccc(NC(=O)c3cc(O[C@H](C)c4c(Cl)ccc(F)c4Cl)c(N)nn3)cc2)C[C@H](C)N1` is ____.
output: 19 µM

###

# System: NCI-H460 lung
# ASSAY SUMMARY: NCI tumour cell line growth inhibition, 48 h
Assignment: determine reported TGI for the given compounds.

input: Fill blank: measured TGI of the compound `COc1ccc2c(c1)c(=O)c1ccccc1n2/C=C/C(=O)O` is ____.
output: > 100 µM

input: Fill blank: measured TGI of the compound `Cc1ccc(/C(O)=C/c2nc3ccccc3oc2=O)cc1` is ____.
output: > 100 µM

input: Fill blank: measured TGI of the compound CCOC(C)C(/C=N/NC(N)=S)=NNC(N)=S (configuration not stated) is ____.
output: > 100 µM

input: Fill blank: measured TGI of the compound `C=C1C(=O)O[C@@H]2C[C@@]3(C)CCC[C@H](C)C3=C[C@H]12` is ____.
output: 31.7 µM

input: Fill blank: measured TGI of the compound C=CCCC(OCOCCOC)c1cc(C)c(O[Si](C)(C)C(C)(C)C)c(C)c1 (configuration not stated) is ____.
output: 32.1 µM

input: Fill blank: measured TGI of the compound `COc1ccc2c(c1)C(=O)/C(=C/c1cccc(OCC(=O)Nc3nc4c(s3)CCCC4)c1)O2` is ____.
output: 13.4 µM

input: Fill blank: measured TGI of the compound `COc1cc2nc3sc(C(=O)Nc4ccc(C(=O)OC(C)C)cc4)c(C(=O)Nc4ccc(Cl)cc4C)n3c(=O)c2cc1OC` is ____.
output: > 100 µM

input: Fill blank: measured TGI of the compound COc1ccc2cc(C(C)C(O)c3cc(F)c(F)c(F)c3F)ccc2c1 (configuration not stated) is ____.
output: > 100 µM

input: Fill blank: measured TGI of the compound COCO[C@@H]1C[C@H]2C(O)Nc3ccccc3C(=O)N2C1 (some centres not stated) is ____.
output: > 100 µM

input: Fill blank: measured TGI of the compound `COC(=O)/C=C/c1ccc2c(c1)CCC2` is ____.
output: > 100 µM

input: Fill blank: measured TGI of the compound COc1cc(C2=NN(C)C(c3ccc([N+](=O)[O-])o3)C2)cc(OC)c1OC (configuration not stated) is ____.
output: > 100 µM

input: Fill blank: measured TGI of the compound `CSc1c(C(=O)Nc2ccc(Cl)cc2)c(N)nn1-c1ccccc1` is ____.
output: > 100 µM
